biological target: Neuronal acetylcholine receptor subunit alpha-7 (Homo sapiens); test: Antagonist activity at human alpha7 nAChR expressed in HEK293 cells assessed as inhibition of (+/-)-epibatidine-induced calcium influx preincubated for 5 mins followed by (+/-)-epibatidine addition measured for 78 secs by Fluo-4-AM dye based FLIPR assay; conditions: in the assay text read “GH3” for “HEK293”
Sequence (P36544 whole entry): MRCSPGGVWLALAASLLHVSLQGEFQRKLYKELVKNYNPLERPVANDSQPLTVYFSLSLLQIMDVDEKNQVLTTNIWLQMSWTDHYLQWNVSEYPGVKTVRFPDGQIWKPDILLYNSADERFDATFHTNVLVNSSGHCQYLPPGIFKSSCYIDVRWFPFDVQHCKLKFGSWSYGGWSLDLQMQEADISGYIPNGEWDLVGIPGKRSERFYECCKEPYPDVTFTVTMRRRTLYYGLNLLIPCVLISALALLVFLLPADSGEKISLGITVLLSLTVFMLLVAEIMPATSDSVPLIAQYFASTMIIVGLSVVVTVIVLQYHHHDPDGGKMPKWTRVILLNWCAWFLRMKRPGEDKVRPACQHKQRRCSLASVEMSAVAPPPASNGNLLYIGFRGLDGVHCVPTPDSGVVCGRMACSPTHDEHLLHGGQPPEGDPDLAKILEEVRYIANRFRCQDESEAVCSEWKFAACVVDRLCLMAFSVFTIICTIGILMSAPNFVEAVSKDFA
Entries annotated with measured IC50
Kindly provide the numeric value in µM only, without the unit symbol.

- compound: "CC1(C)CCC[C@]2(C)[C@H]3COC(=O)C3=CC[C@@H]12 [CINNAMOLIDE]"
  experimental value: 4.64

Then this compound:
IC50 recorded for this compound, CC1(C)CCC[C@]2(C)[C@H]3C(=O)OCC3=CC[C@@H]12 [DRIMENIN] , is 13.8

* * *

Entries annotated with measured pIC50
biological target: Neuronal acetylcholine receptor; alpha3/beta4 (Homo sapiens, UniProt P30926+P32297); experiment: Antagonist activity at human alpha3beta4 nAChR expressed in HEK293 cells assessed as inhibition of (+/-)-epibatidine-induced calcium influx preincubated for 5 mins followed by (+/-)-epibatidine addition measured for 78 secs by Fluo-4-AM dye based FLIPR assay
Sequence (P30926 whole entry): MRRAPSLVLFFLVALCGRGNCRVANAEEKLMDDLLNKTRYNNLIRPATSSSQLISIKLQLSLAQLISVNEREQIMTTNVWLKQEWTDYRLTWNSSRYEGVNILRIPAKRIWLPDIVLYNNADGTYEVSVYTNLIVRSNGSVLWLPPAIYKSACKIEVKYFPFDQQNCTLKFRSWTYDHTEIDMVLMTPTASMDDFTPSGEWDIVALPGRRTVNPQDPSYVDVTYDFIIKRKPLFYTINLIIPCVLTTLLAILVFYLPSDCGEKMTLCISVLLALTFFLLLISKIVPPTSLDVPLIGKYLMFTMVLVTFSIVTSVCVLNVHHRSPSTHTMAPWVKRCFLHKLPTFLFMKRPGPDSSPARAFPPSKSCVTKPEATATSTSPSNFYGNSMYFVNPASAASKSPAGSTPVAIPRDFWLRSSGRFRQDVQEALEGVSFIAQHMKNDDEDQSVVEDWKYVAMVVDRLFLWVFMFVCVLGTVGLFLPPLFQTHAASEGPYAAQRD
Sequence (P32297 whole entry): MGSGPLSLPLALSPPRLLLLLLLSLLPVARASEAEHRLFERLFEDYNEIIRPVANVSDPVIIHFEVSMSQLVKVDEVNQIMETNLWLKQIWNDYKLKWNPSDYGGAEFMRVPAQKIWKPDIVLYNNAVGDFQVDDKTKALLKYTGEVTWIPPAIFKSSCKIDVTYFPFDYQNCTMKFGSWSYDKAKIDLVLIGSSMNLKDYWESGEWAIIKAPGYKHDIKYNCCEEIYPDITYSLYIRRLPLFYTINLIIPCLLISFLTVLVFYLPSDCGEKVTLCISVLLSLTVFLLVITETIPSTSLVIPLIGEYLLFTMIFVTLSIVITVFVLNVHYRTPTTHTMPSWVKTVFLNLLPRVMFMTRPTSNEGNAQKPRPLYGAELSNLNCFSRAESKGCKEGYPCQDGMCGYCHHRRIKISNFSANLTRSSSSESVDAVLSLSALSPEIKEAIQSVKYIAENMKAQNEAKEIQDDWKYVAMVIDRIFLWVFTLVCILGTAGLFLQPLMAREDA
Just so you know, pIC50 here is -log10 of the concentration in molar units; reply with that number alone.

Worked cases, answers included:
- compound: "CC1(C)CCC[C@]2(C)[C@H]3C(=O)OCC3=CC[C@@H]12"
  endpoint: "pIC50"
  experimental value: 5.75
- compound: "CC1(C)CCC[C@]2(C)[C@@H](C=O)C(C=O)=CC[C@@H]12"
  endpoint: "pIC50"
  experimental value: 4.32

Then this compound:
pIC50 recorded for this compound, CC1(C)CCC[C@]2(C)[C@H]3COC(=O)C3=CC[C@@H]12 [CINNAMOLIDE] , is 5.58
